target: mGlu7 (Homo sapiens, UniProt Q14831); test: Agonist activity on group III receptor mGlu7
Sequence (Q14831 35-915): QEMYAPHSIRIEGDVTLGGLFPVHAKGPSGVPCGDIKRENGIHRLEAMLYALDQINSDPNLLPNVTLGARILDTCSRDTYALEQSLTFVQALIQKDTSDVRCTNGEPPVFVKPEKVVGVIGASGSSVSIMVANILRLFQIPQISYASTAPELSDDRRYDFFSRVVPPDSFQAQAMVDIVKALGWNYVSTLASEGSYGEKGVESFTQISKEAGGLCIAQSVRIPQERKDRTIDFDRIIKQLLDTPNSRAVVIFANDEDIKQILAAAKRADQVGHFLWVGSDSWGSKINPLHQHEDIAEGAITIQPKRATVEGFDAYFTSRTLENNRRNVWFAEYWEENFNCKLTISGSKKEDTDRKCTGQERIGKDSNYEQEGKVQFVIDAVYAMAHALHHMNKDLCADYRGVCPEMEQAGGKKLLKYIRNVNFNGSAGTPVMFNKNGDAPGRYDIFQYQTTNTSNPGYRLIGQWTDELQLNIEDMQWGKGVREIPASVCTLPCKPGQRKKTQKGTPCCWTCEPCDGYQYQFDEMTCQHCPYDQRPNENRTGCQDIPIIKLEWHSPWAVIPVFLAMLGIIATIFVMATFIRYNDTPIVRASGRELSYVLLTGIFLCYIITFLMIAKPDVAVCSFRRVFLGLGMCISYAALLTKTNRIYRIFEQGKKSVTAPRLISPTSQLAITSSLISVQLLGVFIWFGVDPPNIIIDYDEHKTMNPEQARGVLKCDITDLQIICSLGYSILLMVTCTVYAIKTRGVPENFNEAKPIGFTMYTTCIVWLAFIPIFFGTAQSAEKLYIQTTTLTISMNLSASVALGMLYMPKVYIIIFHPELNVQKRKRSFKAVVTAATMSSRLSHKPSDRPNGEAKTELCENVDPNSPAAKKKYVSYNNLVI
REPORTED_METRIC: EC50

// query EC50 value for entry NC(CCP(=O)(O)CCC(=O)O)C(=O)O (racemic)
> 1000 µM

###

# log10(EC50) listing for each entry below
biological target: rat mGlu4 (Rattus norvegicus, UniProt P31423); construct: expressed in transfected cells; host or cells: HEK293; test: Agonist activity, [3H]phosphatidylinositol accumulation in HEK293 cells transfected with rat mGlu4 and Gqi9; type: cell-based; settings: Table 2; n in brackets; read-out: mGlu4 EC50 μM (n)
Sequence (P31423 33-912): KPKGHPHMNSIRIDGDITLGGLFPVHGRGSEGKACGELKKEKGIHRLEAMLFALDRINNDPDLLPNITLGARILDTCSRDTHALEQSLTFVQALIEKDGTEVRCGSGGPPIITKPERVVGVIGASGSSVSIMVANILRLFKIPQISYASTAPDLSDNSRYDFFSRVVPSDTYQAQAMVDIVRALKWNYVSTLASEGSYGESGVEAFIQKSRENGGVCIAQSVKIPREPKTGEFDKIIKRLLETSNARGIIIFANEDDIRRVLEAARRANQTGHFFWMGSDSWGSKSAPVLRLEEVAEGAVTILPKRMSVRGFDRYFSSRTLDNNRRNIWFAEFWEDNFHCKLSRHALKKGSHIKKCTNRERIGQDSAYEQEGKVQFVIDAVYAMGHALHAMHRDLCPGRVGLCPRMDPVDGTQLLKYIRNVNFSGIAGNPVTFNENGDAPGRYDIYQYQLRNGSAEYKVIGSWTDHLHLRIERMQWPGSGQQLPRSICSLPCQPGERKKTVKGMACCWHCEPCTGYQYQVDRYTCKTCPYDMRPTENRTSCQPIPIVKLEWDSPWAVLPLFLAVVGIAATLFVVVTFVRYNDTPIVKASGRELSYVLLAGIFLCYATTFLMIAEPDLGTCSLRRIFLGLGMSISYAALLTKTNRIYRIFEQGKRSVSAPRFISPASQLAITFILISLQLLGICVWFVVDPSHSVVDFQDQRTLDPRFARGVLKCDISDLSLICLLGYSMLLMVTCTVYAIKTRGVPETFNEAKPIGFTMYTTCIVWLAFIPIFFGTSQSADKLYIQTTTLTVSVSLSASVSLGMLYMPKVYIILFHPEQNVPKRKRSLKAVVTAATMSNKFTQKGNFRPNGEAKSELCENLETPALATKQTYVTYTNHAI
A difference of one corresponds to tenfold EC50; all values are log10 with EC50 in µM.

- N[C@@H](CCP(=O)(O)C(O)c1ccc([N+](=O)[O-])o1)C(=O)O (some centres unmarked): -1.06
- N[C@@H](CCP(=O)(O)C(O)c1c([N+](=O)[O-])cccc1[N+](=O)[O-])C(=O)O (some centres unmarked): 0.29
- N[C@@H](CCP(=O)(O)C(O)c1ccc([N+](=O)[O-])s1)C(=O)O (some centres unmarked): -0.51
- COc1cc(C(O)P(=O)(O)CC[C@H](N)C(=O)O)cc([N+](=O)[O-])c1O (some centres unmarked): 0.18
- N[C@@H](CCP(=O)(O)C(O)c1cccc(C(=O)O)c1)C(=O)O (some centres unmarked): 1.32

// lookup log10(EC50) for N[C@@H](CCP(=O)(O)C(O)c1cc([N+](=O)[O-])ccc1O)C(=O)O (some centres unmarked)
0.07

# log10(EC50) lookup, item N[C@@H](CCP(=O)(O)C(O)c1ccc(C(=O)O)cc1)C(=O)O (some centres unmarked)
1.50

# input compound: N[C@@H](CCP(=O)(O)C(O)c1ccc(Cl)c([N+](=O)[O-])c1)C(=O)O (some centres unmarked) ; wanted: its log10(EC50)
0.44

###

Overview of reported EC50 across a group of compounds:
target: rat mGlu4 (Rattus norvegicus, UniProt P31423); construct: expressed in transfected cells; host or cells: HEK293; assay: Agonist activity, [3H]phosphatidylinositol accumulation in HEK293 cells transfected with rat mGlu4 and Gqi9; format: cell-based; conditions: Table 2; n in brackets; read-out: mGlu4 EC50 μM (n)

Reference set, count: 3
- N[C@@H](CCP(=O)(O)CCC(=O)O)C(=O)O [Compound 7]: 6.4 µM
- N[C@@H](CCP(=O)(O)C(O)c1ccc([N+](=O)[O-])cc1[N+](=O)[O-])C(=O)O (stereo partly shown) [Compound 70]: 1 µM
- N[C@@H](CCP(=O)(O)C(O)c1ccc(N2CCOCC2)c([N+](=O)[O-])c1)C(=O)O (stereo partly shown) [Compound 68]: > 100 µM

Moving on to another compound below.
GET /values?readout=EC50&item= N[C@@H](CCP(=O)(O)C(O)C1CC1C(=O)O)C(=O)O (single isomer, unassigned) [CS158]
5.1 µM

###

target: rat mGlu4 (Rattus norvegicus); construct: expressed in transfected cells; host or cells: HEK293; assay: Agonist activity, [3H]phosphatidylinositol accumulation in HEK293 cells transfected with rat mGlu4 and Gqi9; format: cell-based; details: at 100 μM
REPORTED_METRIC: mGlu4 activity at 100 μM

- C/C(=C\C(=O)O)C(O)P(=O)(O)CC[C@H](N)C(=O)O (stereo partly shown) [Compound 31]: inactive at 100 μM (1)
- NC(CCP(=O)(O)CCCCC(=O)O)C(=O)O (stereo not shown) [Compound 60]: inactive at 100 μM (1)
